Assay: Peroxide radicals capturing capacity
Assay type: biochemical
Settings: pure polyphenols isolated from wood material
Kindly apply the following: True if Peroxide radicals capturing capacity is less than 0.8 mmol/g, False in every other case.

Below are worked cases with known answers.
# molecule, class
data = [
    ("Oc1ccc([C@H]2Oc3c(ccc(O)c3O)[C@@H](O)[C@H]2O)cc1O [Melacasidine]", "False"),
    ("COc1cc([C@H]2c3cc(O)c(OC)cc3C[C@@H](CO)[C@@H]2CO)ccc1O [Cyclolariciresinol]", "False"),
    ("O=C1C[C@@H](c2ccccc2)Oc2cc(O)cc(O)c21 [Pinosembrin]", "True"),
]

With those in mind, consider the next molecule.
# strict comparison: is reported Peroxide radicals capturing capacity < 0.8 mmol/g? input = Oc1ccc([C@H]2Oc3c(ccc(O)c3O)[C@@H](O)[C@H]2O)cc1 [Teracasidine]
False
